experiment: qHTS of pediatric cancer cell lines to identify multiple opportunities for drug repurposing: Primary screen for RD cells (AID 1347104); details: RD rhabdomyosarcoma viability, CellTiter-Glo luminescence, 48 h; series mostly up to 46 µM; also: nearly all actives have a fitted effect of over 55% in size
Inconclusive results are not listed. Active and inactive are the calls of the source. Calls follow the shape of the dose curve; as a rule, active = well fitted cell-killing curve with a large enough effect; inconclusive = small, poorly fitted or top-dose-only effect; inactive = flat fitted curve, though single readings scatter.
Labels: 1 = active, -1 = inactive

> print(dat)
                                    molecule  category
 1          Cc1cccc(C)c1NC(=O)c1ccccc1C(=O)O        -1
 2  CCCCN1C[C@H](O)[C@@H](O)[C@H](O)[C@H]1CO        -1
 3              COc1cc(C)nc(-n2nc(C)cc2OC)n1        -1
 4               O=[N+]([O-])c1ccc(/C=N\O)o1        -1
 5  CC(C)(C)CC(C)(C)c1ccc(O)c(-n2nc3ccccc3n2)c1        -1
 6    CCN(CC)CCNc1ccc(CO)c2sc3ccccc3c(=O)c12         1
 7      CC(C)(C)NC[C@H](O)COc1cccc2c1CCCC2=O        -1
 8    CN(Cc1ccc(C(C)(C)C)cc1)Cc1cccc2ccccc12        -1
 9  Clc1cccc(C(c2ccc3nc[nH]c3c2)n2ccnc2)c1 (stereo not drawn)        -1
10  CCc1nn(CCCN2CCN(c3cccc(Cl)c3)CC2)c(=O)n1CCOc1ccccc1        -1
11           CCCCNC(=O)NS(=O)(=O)c1ccc(N)cc1        -1
12  CN1CCN(CCC(=O)N2c3ccccc3Sc3ccc(C(F)(F)F)cc32)CC1         1
13  CC(=O)O[C@]1(C(C)=O)CC[C@H]2[C@@H]3C=C(C)C4=CC(=O)CC[C@]4(C)[C@H]3CC[C@@]21C        -1
14  COc1cc([C@H]2Oc3cc([C@H]4Oc5cc(O)cc(O)c5C(=O)[C@@H]4O)ccc3O[C@@H]2CO)ccc1O        -1
15  O=C(CN1CCN(Cc2ccc3c(c2)OCO3)CC1)N1c2ccccc2Sc2ccccc21        -1
16  CCN1CCN(C(=O)N[C@@H](C(=O)N[C@@H]2C(=O)N3C(C(=O)O)=C(CSc4nnnn4C)CS[C@H]23)c2ccc(O)cc2)C(=O)C1=O        -1
17       CN(C)CCN1C(=O)c2ccccc2N(C)c2ccccc21        -1
18  CO[C@]12C[C@@H](COC(=O)c3cncc(Br)c3)CN(C)[C@@H]1Cc1cn(C)c3cccc2c13        -1
19  CN(C)CCOC(c1ccc(Cl)cc1)c1ccccn1 (stereo not drawn)        -1
20                Cc1ccc2c(Br)cc(Br)c(O)c2n1         1
21          CCOCCn1c(N2CCCN(C)CC2)nc2ccccc21        -1
22                         CCCCCCCCCCCCCCCCO        -1
23       Nc1ccc(S(=O)(=O)Nc2cnc3ccccc3n2)cc1        -1
24                              CNCCc1ccccn1        -1
25  C#C[C@]1(O)CC[C@H]2[C@@H]3CCC4=CC(=O)CC[C@@H]4[C@H]3CC[C@@]21CC        -1
26  C#C[C@]1(O)CC[C@H]2[C@@H]3[C@H](C)CC4=C(CCC(=O)C4)[C@H]3CC[C@@]21C        -1
27                     NCCNC(=O)c1ccc(Cl)cn1        -1
28                    Nc1nc(N)c(-c2ccccc2)s1        -1
29                     CCCCCCCCCCCCCCCC(=O)O        -1
30  O=C1OC2(c3ccccc31)c1cc(Br)c(O)c(Br)c1Oc1c2cc(Br)c(O)c1Br        -1
31                                OCc1ccccn1        -1
32         CCN(CC)CCOc1ccccc1C(=O)CCc1ccccc1        -1
33  CC(=C(CCOC(=O)C(C)C)SSC(CCOC(=O)C(C)C)=C(C)N(C=O)Cc1cnc(C)nc1N)N(C=O)Cc1cnc(C)nc1N        -1

###

assay: NFAT Signaling Pathway (AID 444); conditions: Jurkat NFAT-bla M1, carbachol, beta-lactamase ratio, 5 h; at 17.2 µM (top of the series) unless noted;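 also: carbachol stimulus at about its EC50 of 1 µM final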
Records with an inconclusive call do not appear. Calls of active or inactive are those of the source. Calls follow the shape of the dose curve; as a rule, active = well fitted curve in either direction with a large enough effect (not every such curve was filed as active); inconclusive = small, poorly fitted or top-dose-only effect, or another doubt; inactive = flat fitted curve, though single readings scatter.
Labels: yes (1) (active), no (0) (inactive)

> print(dat)
                                    compound  category
 1                    O=C(O)CCNC(=O)c1ccccc1    no (0)
 2  CC[N+](C)(CC)CCOC(=O)C(O)(c1ccccc1)C1CCCCC1 (stereo unspecified)   yes (1)
 3  CC(=O)O[C@]1(C(C)=O)CC[C@H]2[C@@H]3C=C(Cl)C4=CC(=O)CC[C@]4(C)[C@H]3CC[C@@]21C    no (0)
 4              COc1cc(C)nc(-n2nc(C)cc2OC)n1    no (0)
 5                      CCOc1ccc(NC(C)=O)cc1    no (0)
 6             COc1ccc(C(=O)c2ccccc2O)c(O)c1    no (0)
 7  C[N+]12CCC(CC1)C(OC(=O)C(O)(c1ccccc1)c1ccccc1)C2 (stereo unspecified)   yes (1)
 8                  Nc1ccc(C(=O)NCC(=O)O)cc1    no (0)
 9  CCCCNc1ccc(C(=O)OCCOCCOCCOCCOCCOCCOCCOCCOCCOC)cc1    no (0)
10  CCCCN1C[C@H](O)[C@@H](O)[C@H](O)[C@H]1CO    no (0)
11  O=C1C(=O)c2ccccc2C(O)=C1C1CCC(c2ccc(Cl)cc2)CC1 (stereo unspecified)    no (0)
12  CC(C)(C)NCC(O)COc1cccc2c1C[C@H](O)[C@H](O)C2 (stereo partly specified)    no (0)
13                       NC(N)=NCc1cccc(I)c1    no (0)
14                      N=C(N)N1CCc2ccccc2C1    no (0)
15  CN(C)CCOC(=O)C(c1ccccc1)C1(O)CCCC1 (stereo unspecified)   yes (1)
16              COc1ccc(C(=O)c2ccccc2)c(O)c1    no (0)
17  COc1cc(N)c(Cl)cc1C(=O)NC1CCN(Cc2ccccc2)CC1    no (0)
18                 CN=C(N)NCCC[C@H](N)C(=O)O    no (0)
19                       c1ccc(CC2=NCCN2)cc1    no (0)
20                       CCOC(=O)c1ccc(N)cc1    no (0)
21  NS(=O)(=O)c1cc(C(=O)O)cc(N2CCCC2)c1Oc1ccccc1    no (0)
22  CC(O)Cn1cnc2c1c(=O)n(C)c(=O)n2C (stereo unspecified)    no (0)
23                O=C1C(O)=C(O)C(=O)C(O)=C1O    no (0)
24                  NS(=O)(=O)Cc1noc2ccccc12    no (0)
25             CCN(CC)CCNC(=O)COc1ccc(OC)cc1    no (0)
26                              CNCCc1ccccn1    no (0)

###

system: JEG-3; assay: Primary qHTS to identify gynecologic anti-cancer compounds using libraries of approved drugs and bioactive compounds (AID 1345084); conditions: Gynecologic cancer cell panel viability, ATPlite luminescence, 48 h; series mostly up to 57.5 µM; also: nearly all actives have a fitted effect of over 55% in size
Results filed as inconclusive are left out. Calls of active or inactive are those of the source. The call rests on the fitted dose curve; in most records, active means well fitted cell-killing curve with a large enough effect; inconclusive means small, poorly fitted or top-dose-only effect, or effect the other way; inactive means flat fitted curve, though single readings scatter.
measurement_type: activity change, negative = cytotoxicity

> print(dat)
                                    compound                          measurement.type    result
 1  CC(=O)O[C@H]1C[C@@H]2CC[C@@H]3[C@H](CC[C@@]4(C)[C@H]3C[C@H]([N+]3(C)CCCCC3)[C@@H]4OC(C)=O)[C@@]2(C)C[C@@H]1N1CCCCC1  activity change, negative = cytotoxicity  inactive
 2    COc1cc(O)c(C(=O)c2ccccc2)cc1S(=O)(=O)O  activity change, negative = cytotoxicity  inactive
 3      CCCN(CCc1cccs1)[C@H]1CCc2c(O)cccc2C1  activity change, negative = cytotoxicity  inactive
 4  O=C(CCN1CCN2CCCC2C1)N1c2ccccc2Sc2ccc(Cl)cc21 (stereo not given)  activity change, negative = cytotoxicity  inactive
 5  O=C(CN1CCN(Cc2ccc3c(c2)OCO3)CC1)N1c2ccccc2Sc2ccccc21  activity change, negative = cytotoxicity  inactive
 6  CC1CCc2c(N3CCC(O)CC3)c(F)cc3c(=O)c(C(=O)O)cn1c23 (stereo not given)  activity change, negative = cytotoxicity  inactive
 7        CCCN(CCC)S(=O)(=O)c1ccc(C(=O)O)cc1  activity change, negative = cytotoxicity  inactive
 8              CC(C)[C@@H]1CC[C@@H](C)CC1=O  activity change, negative = cytotoxicity  inactive
 9  CC(CNC1CCCCC1)OC(=O)c1ccccc1 (stereo not given)  activity change, negative = cytotoxicity  inactive
10           Nc1nc(-c2ccccc2)c(Br)c(=O)[nH]1  activity change, negative = cytotoxicity  inactive
